Consider the following compounds and their measured logP readings.
READOUT_TYPE: logP

COMPOUND	MEASUREMENT
O=C(Cc1ccccc1)Nc1ccc(Br)cc1	3.7
O=C(Cc1ccccc1)Nc1cccc([N+](=O)[O-])c1	2.93
CS(=O)(=O)Oc1cccc(NC(=O)Cc2ccccc2)c1	2.32
COc1ccccc1NC(=O)Cc1ccccc1	2.68
O=C(Cc1ccccc1)Nc1ccccc1[N+](=O)[O-]	2.73
CCOc1cccc(NC(=O)Cc2ccccc2)c1	3.23
O=C(Cc1ccccc1)Nc1cccc(O)c1	2.22
O=C(Cc1ccccc1)Nc1ccc([N+](=O)[O-])cc1	3.18
N#Cc1cccc(NC(=O)Cc2ccccc2)c1	2.75
O=C(Cc1ccccc1)Nc1cccc(Br)c1	3.77
O=C(Cc1ccccc1)Nc1ccc(Cl)cc1	3.54
Nc1ccccc1NC(=O)Cc1ccccc1	1.45
O=C(Cc1ccccc1)Nc1ccccc1F	2.62
Cc1cccc(NC(=O)Cc2ccccc2)c1	3.14
CCc1cccc(N(C(C)=O)c2ccccc2)c1	3.47
O=C(Cc1ccccc1)Nc1cccc(I)c1	3.91
CC(=O)Oc1cccc(NC(=O)Cc2ccccc2)c1	2.37
O=C(Cc1ccccc1)Nc1cccc(F)c1	3.1
CNc1cccc(NC(=O)Cc2ccccc2)c1	2.31
CC(=O)c1cccc(NC(=O)Cc2ccccc2)c1	2.62
O=C(Cc1ccccc1)Nc1ccccc1	2.7
COc1cccc(NC(=O)Cc2ccccc2)c1	2.86
O=C(Cc1ccccc1)Nc1ccc(O)cc1	1.82
O=C(Cc1ccccc1)Nc1ccccc1O	2.4
CC(=O)N(c1ccccc1)c1ccc(C)cc1	3.05
CCNc1cccc(NC(=O)Cc2ccccc2)c1	2.59
COc1ccc(NC(=O)Cc2ccccc2)cc1	2.49
Nc1cccc(NC(=O)Cc2ccccc2)c1	1.59
O=C(Cc1ccccc1)Nc1ccc(F)cc1	2.86
CC(=O)c1ccc(NC(=O)Cc2ccccc2)cc1	2.75
